Tested on: HCT116 cancer cell line
Assay explanation: SRB assay of antiproliferative activity, HCT116
Assay type: cell-based
Assay conditions: Homo sapiens, HCT-116, 48 h, mean ± standard error (n = 3)
Description: Breast cancer cell line MCF7 and colorectal carcinoma cell line HCT116 were obtained from the National Cancer Institute (MTA Number: 2702-09). Cells were cultured in complete RPMI 1640 medium (Hyclone, Logan, UT, USA) containing 10% FBS (Hyclone, Logan, UT, USA) in an atmosphere of 5% CO 2/100% humidity at 37 °C. […] The SRB assay was performed following the methodology of previously published studies. […] The SRB stain was then solubilized in 10 mM Tris and absorbances were read at 515 nm. […]

Compound | Value units | Modifier sign | GI50
COc1n[nH]c2ccc(-c3ccnc(NC(=O)NCCc4ccc(F)cc4)c3)cc12 | nM | = | 1380
COc1n[nH]c2ccc(-c3ccnc(NC(=O)Nc4cccc(F)c4)c3)cc12 | nM | > | 10000
CCc1c2c(nc3ccc(OC(=O)N4CCC(N5CCCCC5)CC4)cc13)-c1cc3c(c(=O)n1C2)COC(=O)[C@]3(O)CC [Irinotecan, reference compound] | nM | = | 620
COc1n[nH]c2ccc(-c3ccnc(NC(=O)Nc4ccccc4)c3)cc12 | nM | = | 1190
O=C(Nc1ccc(F)cc1)Nc1cc(-c2ccc3cncnc3c2)ccn1 | nM | > | 10000
COc1n[nH]c2ccc(-c3ccnc(NC(=O)Nc4ccc(F)c(Cl)c4)c3)cc12 | nM | = | 920
COc1cccc(NC(=O)Nc2cc(-c3ccc4cncnc4c3)ccn2)c1 | nM | > | 10000
O=C(Nc1ccccc1)Nc1cc(-c2ccc3cncnc3c2)ccn1 | nM | > | 10000
